- Test target: human melatonin receptor (human ML1A) (Homo sapiens, UniProt P48039)
- Construct: expressed in transfected cells; host or cells: COS-1 cells (transient, pcDNAI, DEAE-dextran); membrane homogenates
- Sequence (P48039 whole entry): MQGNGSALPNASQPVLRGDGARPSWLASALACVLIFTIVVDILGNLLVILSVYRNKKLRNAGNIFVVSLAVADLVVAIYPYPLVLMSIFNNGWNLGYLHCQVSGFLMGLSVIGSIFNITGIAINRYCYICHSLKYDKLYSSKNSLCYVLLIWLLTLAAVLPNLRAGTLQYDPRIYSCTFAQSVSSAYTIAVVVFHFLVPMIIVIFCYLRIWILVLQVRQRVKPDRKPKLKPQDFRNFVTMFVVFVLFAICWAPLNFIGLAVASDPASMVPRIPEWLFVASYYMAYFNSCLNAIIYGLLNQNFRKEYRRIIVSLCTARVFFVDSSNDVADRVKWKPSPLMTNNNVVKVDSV
- Assay remarks: Melatonergic binding: displacement of 2-[125I]-iodomelatonin at the human melatonin receptor (human ML1A in COS-1 membranes)
- Test parameters: Table 5; displacement of 2[125I]-Iodomelatonin (100 pM), 37° C., 1 hour
pIC50: −log10 of the molar value.
Measurement label: pIC50

Molecule	Test target	Measurement label	Reported measurement
CCCC(=O)NC[C@@H]1C[C@H]1c1cccc(OCCCc2cccc(OC)c2)c1 (relative stereo) [Example 62]	human melatonin receptor (human ML1A) (Homo sapiens, UniProt P48039)	pIC50	7.40 to 8.30
CCCC(=O)NC[C@@H]1C[C@H]1c1cccc(OCCCC#Cc2ccccc2)c1 (relative stereo)	human melatonin receptor (human ML1A) (Homo sapiens, UniProt P48039)	pIC50	6.22 to 6.60
CCCCCCCCCCCCCCCCOc1cccc([C@@H]2C[C@H]2CNC(=O)CCC)c1 (relative stereo)	human melatonin receptor (human ML1A) (Homo sapiens, UniProt P48039)	pIC50	6.22 to 6.60
CCCC(=O)NC[C@@H]1C[C@H]1c1cccc(OCCCCCCCc2ccccc2)c1 (relative stereo)	human melatonin receptor (human ML1A) (Homo sapiens, UniProt P48039)	pIC50	7.40 to 8.30
CCCC(=O)NC[C@@H]1C[C@H]1c1cccc(OCCc2cccc(F)c2)c1 (relative stereo)	human melatonin receptor (human ML1A) (Homo sapiens, UniProt P48039)	pIC50	7.40 to 8.30

Quick check: pIC50 on human melatonin receptor (human ML1A) (Homo sapiens, UniProt P48039), item C=CCCCOc1cccc([C@@H]2C[C@H]2CNC(=O)CCC)c1 (relative stereo) ?
7.40 to 8.30

Please tell me: pIC50 of CCCC(=O)NC[C@@H]1C[C@H]1c1cccc(C)c1 (relative stereo) , system human melatonin receptor (human ML1A) (Homo sapiens, UniProt P48039)?
7.40 to 8.30

====

- Test target: human melatonin receptor (human ML1A) (Homo sapiens)
- Construct: expressed in transfected cells; host or cells: COS-1 cells (transient, pcDNAI, DEAE-dextran); membrane homogenates
- Assay remarks: Melatonergic binding: displacement of 2-[125I]-iodomelatonin at the human melatonin receptor (human ML1A in COS-1 membranes)
- Test parameters: Table 5; displacement of 2[125I]-Iodomelatonin (100 pM), 37° C., 1 hour
A collection of compounds and their measured IC50

Guide cases for IC50, answers given:
Compound	IC50
CCCC(=O)NC[C@@H]1C[C@H]1c1cccc(OCCc2cccc(C(F)(F)F)c2)c1 (relative stereo) [Example 123]	< 5 nM
CCCCCCCCOc1cccc([C@@H]2C[C@H]2CNC(=O)CCC)c1 (relative stereo) [Example 54]	5 to 40 nM
CCCC(=O)NC[C@@H]1C[C@H]1c1cccc(Cl)c1 (relative stereo) [Example 80]	5 to 40 nM

Lab note: next compound to report on.
Given CCCC(=O)NC[C@@H]1C[C@H]1c1cccc(OCCc2ccccc2)c1 (relative stereo) [Example 60] , state its recorded IC50.
5 to 40 nM

====

- Test target: human melatonin receptor (human ML1A) (Homo sapiens)
- Construct: expressed in transfected cells; host or cells: COS-1 cells (transient, pcDNAI, DEAE-dextran); membrane homogenates
- Assay remarks: Melatonergic binding: displacement of 2-[125I]-iodomelatonin at the human melatonin receptor (human ML1A in COS-1 membranes)
- Test parameters: Table 5; displacement of 2[125I]-Iodomelatonin (100 pM), 37° C., 1 hour
pIC50: −log10 of the molar value.
Measurement label: pIC50

Consider the reported pIC50 for these compounds:
Compound	Reported measurement
CCCC(=O)NC[C@@H]1C[C@H]1c1cccc(OCCCc2cccc(OC)c2)c1 (single isomer, unassigned) [Example 84]	> 8.30
CCCC(=O)NC[C@@H]1C[C@H]1c1cccc(OCCCC(=O)OC)c1 (relative stereo) [Example 108]	6.60 to 7.40
CC(=O)NC[C@@H]1C[C@H]1c1cccc(C)c1 (relative stereo) [Example 78]	6.60 to 7.40

Consider the compound shown here: CCCC(=O)NC[C@@H]1C[C@H]1c1cccc(O)c1 (relative stereo) [Example 7a] What is its recorded pIC50?
6.22 to 6.60

Look up pIC50 for this compound: CCCC(=O)NC[C@@H]1C[C@H]1c1cccc(OCC=C(C)CCC=C(C)C)c1 (relative stereo) [Example 99]
7.40 to 8.30

What measured pIC50 goes with CCCC(=O)NC[C@@H]1C[C@H]1c1cc(F)ccc1F (relative stereo) [Example 87] ?
6.60 to 7.40

// returns reported pIC50 for input CCCC(=O)NC[C@@H]1C[C@H]1c1cc(OC(F)(F)F)ccc1Br (relative stereo) [Example 72]
6.60 to 7.40

I am curious: what pIC50 value has been reported for CCCC(=O)NC[C@@H]1C[C@H]1c1cccc(OCCCc2ccc(OC)cc2)c1 (relative stereo) [Example 127] ?
7.40 to 8.30
